Test system: U2OS
Experiment: Incucyte cell viability with U2OS; note: unitless GR value; below 1 slowed growth and below 0 cell loss
Type: toxicity, cell-based
Recorded conditions: human, 18 h, 10 µM, compound concentration 10 uM, replicate number 1, timepoint 18 hours
Collected Growth Rate values appear next to each entry.
# output: bare number, no unit

CCCCC1=NC2(CCCC2)C(=O)N1Cc1ccc(-c2ccccc2-c2nnn[nH]2)cc1; 0.72
Br.CS(=O)(=O)Nc1c(O)ccc2c1CCCC2C1=NCCN1 (stereo unspecified); 0.68
O=C1c2c(Br)c(Br)c(Br)c(Br)c2C(=O)N1c1ncc[nH]1; 0.89
CC(C)COc1ccc(CNC(=O)N(Cc2ccc(F)cc2)C2CCN(C)CC2)cc1; 0.57
CCC(=O)N1CC[C@H](Nc2ncnc3c2CN(c2cnc(OC)c(C(F)(F)F)c2)CC3)C1; 0.83

Q: Look up Growth Rate of `O=C(O)C(F)(F)F.O=C1NC(=O)/C(=C/c2c[nH]c(=O)c(-c3ccc(N4CCNCC4)nc3)c2)S1` and report it.
Result: 1

* * *

Test system: HEK-293T
Experiment: Incucyte cell viability with HEK293T; note: unitless GR value; below 1 slowed growth and below 0 cell loss
Format: toxicity, cell-based
Recorded conditions: human, 24 h, 10 µM, compound concentration 10 uM, replicate number 1, timepoint 24 hours
Measurement type: Growth Rate
Would you mind answering with just the numeric figure?

Br.Br.c1ncc(CC2CCNCC2)[nH]1; 0.95
Cc1sc2c(c1C)C(c1ccc(Cl)cc1)=N[C@H](CC(=O)OC(C)(C)C)c1nnc(C)n1-2; 0.81
CC(C)(O)C(=O)N1CCN(c2ccc(C(F)(F)F)c(C3=C(c4c[nH]c5ccccc45)C(=O)NC3=O)c2)CC1; 0.33

Alright, here's another molecule for you.
Q: Indicate the recorded Growth Rate value for this molecule: `O=C1NC(Nc2ccccc2)=N/C1=C\c1ccc2c(c1)OCO2`
Result: 0.82

* * *

Tested on: HEK-293T
Experiment: Incucyte cell viability with HEK293T; note: unitless GR value; below 1 slowed growth and below 0 cell loss
Type: toxicity, cell-based
Recorded conditions: human, 24 h, 10 µM, compound concentration 10 uM, replicate number 1, timepoint 24 hours
# Growth Rate binned as interval 1 = under 0.8, interval 2 = from 0.8 up to 0.9, interval 3 = 0.9 and over

A selection of reference data follows.
Cc1nn(C)c2nc(NNC(=O)Nc3cc(Cl)nc(Cl)c3)cc(C(C)C)c12; interval 3
CCOc1c2c(c(OCC)c3ncccc13)CN(c1ccc(CS(=O)(=O)NC(=O)Cc3ccccc3OC)cc1C)C2=O; interval 2
C[C@@H]1CN(Cc2ccc(F)cc2)CCN1C(=O)COc1ccc(Cl)cc1NC(N)=O [BX 471 FREE BASE]; interval 1

Q: Category of `Nc1nccc(-c2ccn3c(N)nccc23)n1` :
Result: interval 1

Q: Band for the recorded Growth Rate of Br.Cc1cccc(C2CN(C)CCc3c2cc(O)c(O)c3Cl)c1 (stereo not given) ?
Result: interval 3

Q: Please let me know in which category the item `CC1=C(C)C(=O)C(C(C)(C)CC(=O)N(CCCCSC[C@H]2O[C@@H](n3cnc4c(N)ncnc43)[C@H](O)[C@@H]2O)Cc2cccc(-c3ccc(Cl)cc3)c2)=C(C)C1=O` belongs.
Result: interval 1

Q: Class for `CCCC(CCC)C(=O)O` ?
Result: interval 2

Q: Determine which band this compound sits in: `CCCCCCCCCCCCC/C=C/[C@@H](O)[C@@H](N)COP(=O)(O)O`
Result: interval 1

* * *

Tested on: Fibroblast
Experiment: Incucyte cell viability with human fibroblast; note: unitless GR value; below 1 slowed growth and below 0 cell loss
Type: toxicity, cell-based
Recorded conditions: 18 h, 10 µM, compound concentration 10 uM, replicate number 2, timepoint 18 hours
Assign classes using reported Growth Rate values and the ranges low: < 0.2; medium: ≥ 0.2 and < 0.8; high: ≥ 0.8, please.

Worked set:
Nc1nccc(-c2ccn3c(N)nccc23)n1; medium
CC[C@@H](C)Nc1nc(C)nc2c(-c3ccc(OC)nc3C)c(C)nn12 [PEXACERFONT]; high
S=C(NCCCc1c[nH]cn1)NCCCN(Cc1ccc(Cl)c(Cl)c1)c1ccc(Br)cn1; medium
CC[C@H](NC(=O)c1c(C)c(-c2ccccc2)nc2ccccc12)c1ccccc1 [SB-222200]; high
O=c1ccn([C@@H]2O[C@H](COP(=O)([O-])OP(=O)([O-])OP(=O)([O-])O)[C@@H](O)[C@H]2O)c(=O)[nH]1.[Na+].[Na+].[Na+]; high
C[C@H](CCC(=O)O)[C@H]1CC[C@H]2[C@@H]3CC[C@@H]4C[C@H](O)CC[C@]4(C)[C@H]3CC[C@]12C [LITHOCHOLIC ACID]; high
COc1cc(Nc2ncc3c(n2)-c2ccc(Cl)cc2C(c2c(F)cccc2OC)=NC3)ccc1C(=O)O [ALISERTIB]; low
N#Cc1c(N)nc(SCc2csc(-c3ccc(Cl)cc3)n2)c(C#N)c1-c1ccc(OCCO)cc1 [CAPADENOSON]; medium
CCn1c(-c2nc3cc(C(=O)N4CCCC(N)C4)ccc3n2C)cc2ccccc21.Cl (stereo not given); medium
CCCCCCCCCCCCCCC[C@@H](O)[C@@H](N)COP(=O)(O)O; medium

Q: Which class holds `COc1cc2nc(N3CCN(C(=O)COc4c(OC)cccc4C(C)C)CC3)nc(N)c2cc1OC.Cl.Cl` ?
Result: low

Q: Class label required: CCCCCCCCCCCCC/C=C/[C@@H](O)[C@@H](N)COP(=O)([O-])OCC[N+](C)(C)C [SPHINGOSYLPHOSPHORYLCHLOLINE]
Result: low

Q: Each compound maps to one class by Growth Rate. Which class for Cl.Clc1cccc(Cl)c1NC1=NCCN1 [CLONIDINE HYDROCHLORIDE] ?
Result: medium

Q: Class? Entry: `NCCc1c[nH]c2ccc(C(N)=O)cc12.O=C(O)/C=C\C(=O)O`
Result: high

Q: Lab log: `NC(=O)c1cc2c(-c3ccc(C(=O)NCc4ccnc(Cl)c4)s3)cccc2s1` — assign Growth Rate category
Result: low

* * *

Tested on: Fibroblast
Experiment: Incucyte cell viability with human fibroblast; note: unitless GR value; below 1 slowed growth and below 0 cell loss
Assay type: toxicity, cell-based
Recorded conditions: 12 h, 10 µM, compound concentration 10 uM, replicate number 1, timepoint 12 hours
Note to self: class labels come from recorded Growth Rate, ranges listed here: band 1 = under -0.2, band 2 = from -0.2 up to 0.6, band 3 = 0.6 and over

Solved cases below.
Cc1ccccc1C(=O)Nc1ccc(C(=O)N2CCCC(N(C)C)c3ccccc32)cc1.Cl (stereo unspecified); band 1
CN(C)c1ccnc2sc3c(=O)n(N4CCCCCC4)cnc3c12; band 2
CN1CCN(c2cc(-c3ccccc3)nc(N)n2)CC1; band 3

Q: Which class does CC(=O)NCC(=O)N1[C@@H]2CC[C@H]1c1ccc(Nc3ncc(C(F)(F)F)c(NC4CCC4)n3)cc12 [PF-03814735] fall in?
Result: band 2

Q: Dear colleague, I would appreciate it if you could identify the bin for CCCCC1=NC2(CCCC2)C(=O)N1Cc1ccc(-c2ccccc2-c2nnn[nH]2)cc1 [IRBESARTAN] and reply at your convenience.
Result: band 1

Q: Exercise: read the entry C[N+]1(C)[C@@H]2C[C@@H](OC(=O)C(O)(c3cccs3)c3cccs3)C[C@H]1[C@@H]1O[C@@H]12.O.[Br-] [TIOTROPIUM BROMIDE] and state which class it falls under.
Result: band 3

* * *

Each entry below carries its reported Growth Rate.
Test system: HEK-293T
Experiment: Incucyte cell viability with HEK293T; note: unitless GR value; below 1 slowed growth and below 0 cell loss
Type: toxicity, cell-based
Recorded conditions: human, 24 h, 10 µM, compound concentration 10 uM, replicate number 1, timepoint 24 hours
Lab note: jot the number down without any unit.

Example cases with answers are listed next.
CN(C)C(=O)Cn1cc(-c2ccc(-c3cncc4ccccc34)cc2)cn1; 0.9
CN[C@@H](C)C(=O)N[C@H](C(=O)N1CCC[C@H]1C(=O)Nc1snnc1-c1ccccc1)C1CCCCC1 [GDC-0152]; 0.4

Q: Read the entry Cc1ccccc1C(=O)Nc1ccc(C(=O)N2CCCC(N(C)C)c3ccccc32)cc1.Cl (stereo not drawn) and write its reported Growth Rate.
Result: 0.1

Q: Give reported Growth Rate value for CNC(=O)c1nn(C)c2c1C(C)(C)Cc1cnc(Nc3ccc(N4CCN(C)CC4)cc3)nc1-2 [MILCICLIB]
Result: -0.02

* * *

Each entry below carries its recorded Growth Rate.
System: Fibroblast
Experiment: Incucyte cell viability with human fibroblast; note: unitless GR value; below 1 slowed growth and below 0 cell loss
Assay type: toxicity, cell-based
Recorded conditions: 6 h, 10 µM, compound concentration 10 uM, replicate number 2, timepoint 6 hours
Please state the value as a number alone, without comment.

COc1ccc(-n2c(C)c([N+](=O)[O-])c3ccc(O)cc32)cc1; 0.98
NC(=O)c1cccc(-c2cc(Nc3ccc(OC(F)(F)F)cc3)ncn2)c1; 0.58
COc1cc2nc(N3CCN(C(=O)C4CCCO4)CC3)nc(N)c2cc1OC.Cl.O.O (stereo unspecified) [TERAZOSIN HYDROCHLORIDE]; 0.32
CN(C)[C@H]1CN(C2CCc3cccc(F)c32)C[C@@H]1c1ccc(N2CCN(S(C)(=O)=O)CC2)cc1 (stereo partly specified); 0.88
CC1=C(C)C(=O)C(C(C)(C)CC(=O)N(CCCCSC[C@H]2O[C@@H](n3cnc4c(N)ncnc43)[C@H](O)[C@@H]2O)Cc2cccc(-c3ccc(Cl)cc3)c2)=C(C)C1=O; 0.84
CC(C)(O)C(=O)N1CCN(c2ccc(C(F)(F)F)c(C3=C(c4c[nH]c5ccccc45)C(=O)NC3=O)c2)CC1; 0.17
COc1cc(/C=C/C(=O)NCCn2c(C)cc3ccccc32)cc(OC)c1OC; 0.39
COc1cccc2c1c(NS(=O)(=O)c1ccc(Cl)s1)nn2Cc1cccc(CNC(=O)C(C)(C)O)c1; 0.5

Q: Consider the molecule `NC(N)=Nc1nc(CSCCC(N)=NS(N)(=O)=O)cs1` . State its measured Growth Rate.
Result: 0.22

Q: Input O=C(NCCN1CCC(n2c(=O)[nH]c3cc(Cl)ccc32)CC1)c1ccc(F)cc1 [HALOPEMIDE] , output reported Growth Rate.
Result: 0.12

Q: Tell me Growth Rate reported for `O=C(O)C(F)(F)F.O=C1NC(=O)/C(=C/c2c[nH]c(=O)c(-c3ccc(N4CCNCC4)nc3)c2)S1`
Result: 0.04

Q: State its Growth Rate: `COc1ccccc1N1CCN(CCCCNC(=O)c2ccc3ccccc3c2)CC1.Cl`
Result: 0.14
